The origin of these recorded values is ChEMBL document CHEMBL1151057.

System under test: Human immunodeficiency virus type 1 protease (Human immunodeficiency virus 1, UniProt Q72874)
Procedure details: Apparent inhibitory constant against HIV-1 protease was determined
Condition context: read-out: Ki app
pKi: −log10 of the molar value.
Threshold check on pKi: at or above 5 gives Satisfied, strictly below gives Not satisfied.

- Compound: "CC(C)(C)OC(=O)N[C@@H](Cc1ccccc1)/C(O)=C(\\C#N)c1c(F)c(F)c(F)c(F)c1F"
  Classification: "Satisfied"
- Compound: "CC(=O)NC(CC(C)C)C(=O)N[C@@H](Cc1ccccc1)/C(O)=C(\\C#N)c1c(F)c(F)c(F)c(F)c1F (some centres undefined)"
  Classification: "Satisfied"
- Compound: "CC(C)(C)OC(=O)N[C@@H](C(=O)C(N)Cc1ccccc1)/C(O)=C/c1ccc([N+](=O)[O-])cc1 (some centres undefined)"
  Classification: "Not satisfied"
- Compound: "CC(C)(C)OC(=O)N[C@@H](C(=O)C(N)c1ccccc1)/C(O)=C(\\C#N)c1ccc([N+](=O)[O-])cc1 (some centres undefined)"
  Classification: "Not satisfied"
- Compound: "N#C/C(=C(/O)[C@H](Cc1ccccc1)NC(=O)OCc1ccccc1)c1ccc([N+](=O)[O-])cc1"
  Classification: "Not satisfied"
- Compound: "CC(C)(C)OC(=O)N[C@@H](C(=O)C(N)Cc1ccc2ccccc2c1)/C(O)=C(\\C#N)c1ccc([N+](=O)[O-])cc1 (some centres undefined)"
  Classification: "Not satisfied"
- Compound: "CC(C)(C)OC(=O)N[C@@H](Cc1ccccc1)/C(O)=C(\\C#N)c1ccc([N+](=O)[O-])cc1"
  Classification: "Satisfied"
- Compound: "CC(C)(C)OC(=O)N[C@@H](C(=O)C(N)Cc1ccc([N+](=O)[O-])cc1)/C(O)=C(\\C#N)c1ccc([N+](=O)[O-])cc1 (some centres undefined)"
  Classification: "Not satisfied"
